Ratio: anti-MUC16 Binding OVCAR-3/SK-OV-3: recorded values
# Tested System: T1, human MUC16 (mucin 16), endogenously expressed on cells (human)
# T1 construct: Endogenous MUC16 on OVCAR-3 / OVCAR3-Luc / PEO-1 / HPAC cells; also called hMUC16
# Assay Text: MSD electrochemiluminescence cell binding; RLU ratio OVCAR-3/SK-OV-3; Ab 16.7 nM
// return numeric value only (unit: ratio, not printed)

# example entries with known answers
[
  {
    "Binder": "H1H8794P (antibody, V domains shown, Human IgG1 (H1H)) VH: QVQLVESGGGLVKPGGSLRLSCAASGFTFRDYSMSWIRQAPGKGLEWVSYVTFFNSAIYYADSVKGRFTISRDNAKNSLYLQMNSLRAEDTAVYYCAREREPIVGGFDYWGQGTLVTVSS VL: DIQMTQSPSSLSASVGDRVTITCRASQSINSYLNWYQQKPGKAPKLLIYAASSLQGGVPSRFSGGGSGTDFTLTITSLQPEDFATFYCQQSYSSPPITFGQGTRLEIK",
    "Test Value": 3
  },
  {
    "Binder": "H3M9529N (antibody, mouse IgG3, V domains shown, Mouse IgG3 constant region (H3M)) VH: QVQLQQWGAGLLKPSETLSLTCAVYGGSFSGFYWSWIRQPPGKGLEWIGEINHSGSAKYNPSLKNRVIISIDTSKNQFSLKLDSVTAADTAVYNCARQGWNFAIFDYWGQGTLVDVSS VL: DIVMTQSPDSLAVSLGGRATINCKSSQSVLHSSYNKDHLAWYQQRPGQPPKLLIYWASTRESGVPDRFSGSGSGTDFTLTISSLQAEDVAVYYCQQYNILPPTFGQGTRVEIK",
    "Test Value": 99
  }
]

Next binder, Ratio: anti-MUC16 Binding OVCAR-3/SK-OV-3 to be filled in.
Prompt line: Quick one: Ratio: anti-MUC16 Binding OVCAR-3/SK-OV-3 for H1M9528N (antibody, mouse IgG1, V domains shown, Mouse IgG1 constant region (H1M)) VH: QMQLQESGPGLVKPSETLSLTCTVSGGSISSYYWNWIRQPPGKGLEWIGYIYYSGNNFNPSLKSRVTISVDTSKNQFSLKLSSVTAADTAVYYCARAFHWNYEFDYWGQGTLVTVSS VL: EIVLTQSPGTLSLSPGERATLSCRASQSVSNNYLAWYQQKPGQAPRLLLYGASSRTTDIPDRFSGSGSGTDFTLTISRLEPEDFAVYYCQQYDNSPLTFGGGTKVEIR ?
Response line: 120
